experiment: Apparent absorption across the colon calculated with one-compartment model; assay type: in vivo, human; conditions: human, plasma, oral, 855 nmol

molecule	bioavailability [%]
Nc1nc2c(c(=O)[nH]1)N(C=O)C(CNc1ccc(C(=O)N[C@@H](CCC(=O)O)C(=O)O)cc1)CN2 (stereo partly shown) [[^13C5]5-formyltetrahydrofolate]	34.7
